Listing of entries alongside the reported protein stability index.
B1: CDKL4 (parent)
chain: AVKKFVESEDDPVVKKIALREIRM

Variants of: B1
MEASUREMENT DESCRIPTION: protein stability index of a GFP-peptide fusion (GPS, HEK-293T) (PSI 1-6); higher = more stable;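 further: lentivirally expressed fusions sorted by FACS into six bins by GFP to DsRed ratio, PSI derived from sequencing read proportions per bin multiplied by bin number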
CONDITION: c terminus: a fixed tail appended
Form rule: numeric answer, no unit written next to it.

Below are worked cases with known answers.
# BIOSEQUENCE, protein stability index
rows = [
    ("PVKKFVESEDDPVVKKIALREIRM [A1P]", 3.17),
    ("AVKKFVESEDDPVVKKIALAEIRM [R20A]", 3.21),
    ("AVKKFVESEDDPVVLKIALREIRM [K15L]", 1.95),
    ("AVKKWVESEDDPVVKKIALREIRM [F5W]", 2.47),
    ("AVKKFVESEDDLVVKKIALREIRM [P12L]", 2.55),
]

Q. Could you tell me which protein stability index is on file for LVKKFVESEDDPVVKKIALREIRM [A1L] ?
A. 1.99

Q. And then AVKKFVESEDDPVVKPIALREIRM [K16P] , what is it?
A. 2.61

Q. // query: ALKKFVESEDDPVVKKIALREIRM [V2L]
A. 3.7

Q. Also AVKVFVESEDDPVVKKIALREIRM [K4V] , if possible.
A. 2.55

Q. Record: AVKKFVESEDDPVVKKIAIREIRM [L19I]
A. 3.03
